Tested on: MS2 coat protein
assay: apparent KD of MS2 coat protein; designed switch direction (-1 OFF switch, 1 ON switch): 1; higher = weaker reporter binding
assay_conditions: Eterna round: R98; input ligand: none
Param threshold (60 nM) applies to apparent KD of MS2 coat protein; output criterion met when value >= threshold, criterion not met when value < threshold.

seq_text	target_of_assay	assigned_label
CCAAUAUAGUGAGGAUAUGCACAGGAUCACCGUGUAGAAGGCAUCAGGUAGAAGGUGCAGAGGAUCACCCUGUAAGGAUAUACA [pwkr2 ssNG1 DX.7]	MS2 coat protein	criterion met
GACGGAUUCUUAGGAUAUGCUCAGGAAUACUGAGCAGAAGGAAGAAUAACCUGAGGAUCACCCAGGUAAUACUGAACGUCAAUA [Same State NG1 - A3C, U17G Submission 9A]	MS2 coat protein	criterion not met
CCCUUCAGAAGAGGGACAUGAGGAUCACCCAUGUAGGCUGCACAGGAUAUCGAUCGGAGGCGGUACGAGAAGGGUGAUGUCAUU [Riorrebi]	MS2 coat protein	criterion not met
GCCAUCGUAUGAGGAUAUGGCACCGAAACGGUGCCAGAAGGCAUGUCAAUAGACAUGAGGAUCACCCAUGUAUUAUCGAUGGCA [MatMod 1 - Jieux - Same State NG 1]	MS2 coat protein	criterion met
GCUUGCGACGCAGGAUAUGGGUGCCUAAACACGAGGAUCACCCGUGUACAGGAAGCUAAAUGCUCUCAGAAGGGCGUCGCAGGC [United States 9 - Jieux - Same State NG 2]	MS2 coat protein	criterion not met

We next turn to a different sequence, shown below.
Lookup: Textbook exercise: given the entry CACAGGGAUUCAGGAUAUAUUAGCCGAGGCCGCGUAGAAGGGAAAUCCUGACAUGAGGAUCACCCAUGUUAACCCACCUUCCAU [Fingerlickinggood#3] , state whether its apparent KD of MS2 coat protein is greater than or equal to 60 nM.
Found: criterion not met

* * *

System: MS2 coat protein
assay: apparent KD of MS2 coat protein; designed switch direction (-1 OFF switch, 1 ON switch): -1; higher = weaker reporter binding
assay_conditions: input ligand: none
Param threshold (100 nM) applies to apparent KD of MS2 coat protein; output Yes when value >= threshold, No when value < threshold.

seq_text	assigned_label
AGUAGUUACGUAGGAUAUGAGGAUCACCCAUAGAAGGAUAUCGAAAGAGAAGGUCUGAGGAUUACCCAGAAGGACGUGACUACA [pwkr exNG2 2xF5 2xFMN.9] (Eterna round: R96, puzzle: Exclusion NG 2)	Yes
UUAAAUCAUGUAGGAUAUGCGUGGCGAAGCUAUGCAGAAGGACAUGAGGAUCACCCAUGUUCCUGCGUCCGCGUACGGAUGCAA [JL Eng1 1.21 mod] (Eterna round: R96, puzzle: Exclusion NG 1)	No
GGUGGGCUAGGAUAUGCUUUGGGAAAGCAUUCCUUCGAUAAACUUGAGGAUCACCCAAGUAGAAGGAGCUUGCC [salish99_ex2_r4_020] (Eterna round: R97, puzzle: Exclusion 2)	No

Lookup: Textbook exercise: given the entry GGCCGUAAUAAGGAUAUCACUAGCUGCGGCUAGUGAGAAGGUAUUACAUGAGGAUCACCCAUGUGGUCAGGCCA [E6/4-B3] (Eterna round: R97, puzzle: Exclusion 6) , state whether its apparent KD of MS2 coat protein is greater than or equal to 100 nM.
Found: Yes

Lookup: Textbook exercise: given the entry CGCUGGUGAGGAUAUGGGUGUUUUUACAUGAGGAUCACCCAUGUGGAGUAGCAUGUGGGUCCAGAAGGCGCGAGUG [-24.2, -22.5 kcal, 21% A] (Eterna round: R97, puzzle: Exclusion 5) , state whether its apparent KD of MS2 coat protein is greater than or equal to 100 nM.
Found: Yes

* * *

Test system: MS2 coat protein
assay: apparent KD of MS2 coat protein; designed switch direction (-1 OFF switch, 1 ON switch): -1; higher = weaker reporter binding
assay_conditions: input ligand: none
The entries below are paired with their reported apparent KD of MS2 coat protein.
Report as a plain number; the unit nM is understood.

Lookup: Please tell me: apparent KD of MS2 coat protein of CCCUCACAUGAGGAUCACCCAUGUCAGGAUAUCUCAGUACGUCCACACGGACGCACCAAGAGAAGGGACAAAGC [Veara] (Eterna round: R97, puzzle: Exclusion 1) , system MS2 coat protein?
Found: 20

Lookup: Please tell me: apparent KD of MS2 coat protein of CCGCUACAUGAGGAUCACCCAUGUCAGGAUAUCGUACGUUCGUCGAAAGACGAUCGUACGAGAAGGGUGUGCGG [Eli x1 4.37] (Eterna round: R97, puzzle: Exclusion 1) , system MS2 coat protein?
Found: 155

Lookup: Please tell me: apparent KD of MS2 coat protein of GGUGAGCUACUAGGAUAUCUAGGCUAUUUACCUAGAGAAGGAGUCGCCUUCCCUCGCGUAGAUACAUGAGGAUCACCCAUGUAU [Eternabot solution 50] (Eterna round: R96, puzzle: Exclusion NG 1) , system MS2 coat protein?
Found: 18.1

* * *

System: MS2 coat protein
assay: apparent KD of MS2 coat protein; designed switch direction (-1 OFF switch, 1 ON switch): 1; higher = weaker reporter binding
assay_conditions: Eterna round: R95; input ligand: FMN 200 uM
measure_name: apparent KD of MS2 coat protein (µM)
Report as a plain number; the unit µM is understood.

Previously resolved entries follow.
seq_text	quantitative_result
AACAAUCUAUCUGAGGAUAUCAUGAAAUAAACAUGAGGAUCACCCAUGUGCAGGAAAACUGCAUAUGAGAAGGCAGAUAGAUUGA [salish99_ss2_r3_x] (puzzle: Same State 2)	0.0495
AUCCUACAUGAGGAUCACCCAUGUGACGCCUCGAUAGGAUAUGCGUGUGCCUUGGCGCAUGCAGAAGGAUUGUUGC [JL Aveso mod 7] (puzzle: Same State 1)	0.0692
AAGAACAAGCGAAAGGCCCGUCUUAUAUAACAUGAGGAUCACCCAUGUAAGGUGAAAGUUAGAGAGUGGAGGUUGAA [JR_SHM208A_Sub047] (puzzle: Sensor for hsa-mir-208a)	0.284
UUUUUAUAACAUGAGGAUCACCCAUGUGCGCGCACAAGGUUGUUGCUCGUCUUAUUUUUUUUUUUUUUUUUUUUUUU [viviankchen2] (puzzle: Sensor for hsa-mir-208a version 2)	0.0332
AUAAAACAUGAGGAUCACCCAUGUCUACAAAGUCGAGGAUAUGGGCAAAUAAAAUAAGAACCAGAAGGCGAAUAAU [salish99_ss1_r3_044] (puzzle: Same State 1)	0.0626
UGUUAACAUGAGGAUCACCCAUGUCAAAUGAAUCGAGGAUAUGGGAAGUAAUAAGAUAAACUAGAAGGCGAAGUUG [Altered State 1-1 - Jieux - Same State 1] (puzzle: Same State 1)	0.358
CUCCCAUGUGCACAGGAUAUGCCGGGAUGCACAUGAGGAUCACCCAUGUAAUCCUGAAAAUAAAAGCAGAAGGGUGAUCAUGGGU [Teriqula] (puzzle: Same State 2)	0.00724
AACAAUUUAUCUGAGGAUAUCAUGAAAUAAACAUGAGGAUCACCCAUGUGCAGGAAAACUGCAUAUGAGAAGGCAGAUAGAUUGA [salish99_ss2_r3_023] (puzzle: Same State 2)	0.0535

Lookup: Please tell me: apparent KD of MS2 coat protein of GGAGCCGGCACUGAGGAUAUUCAUUUUAAAACAUGAGGAUCACCCAUGUAGGCCAGAAGGCCUUGGGAGAAGGCAGGUCGGCCCG [Bibimoar - 6] (puzzle: Same State 2) , system MS2 coat protein?
Found: 0.0185

Lookup: Please tell me: apparent KD of MS2 coat protein of UAUAAACAUGAGGAUCACCCAUGUAAUAAUAUGGGAGGAUAUCAGAAUUUAUUUAUUUAAUGAGAAGGCCUAAUAU [Mat - Same State 1 - Mod of Eli - D67] (puzzle: Same State 1) , system MS2 coat protein?
Found: 0.0345

Lookup: Please tell me: apparent KD of MS2 coat protein of GUUAAACAUGAGGAUCACCCAUGUAAUAAUAUGGGAGGAUAUCAGAAAUUAUGUAUGAAAUGAGAAGGCCUAAUUG [Mat - Same State 1 - Mod of Eli - D79] (puzzle: Same State 1) , system MS2 coat protein?
Found: 0.0898

Lookup: Please tell me: apparent KD of MS2 coat protein of GUUAAACAUGAGGAUCACCCAUGUCAUCUAAGUCGAGGAUAUGGGAAUUAAUUAAUUAAACCAGAAGGCGAAAAUU [Mat - Same State 1 - D95] (puzzle: Same State 1) , system MS2 coat protein?
Found: 0.0597

Lookup: Please tell me: apparent KD of MS2 coat protein of GGGCCAGCUUGUGCUGGGCCUUCGCAUGCACAUGAGGAUCACCCAUGUCGUGUACAUGCUUUUUGCUCGUCUUUAAA [Photon Torp-11] (puzzle: Sensor for hsa-mir-208a) , system MS2 coat protein?
Found: 0.0396

Lookup: Please tell me: apparent KD of MS2 coat protein of UCAAGCGUUUGGCUCGUCUUAUGUUUGGUACAUGAGGAUCACCCAUGUUAUGUACGAUCCAGUUAGAUGGUAUUUUG [JR_SHM208A_Sub037] (puzzle: Sensor for hsa-mir-208a) , system MS2 coat protein?
Found: 0.0359

Lookup: Please tell me: apparent KD of MS2 coat protein of GAGGAACAUGAGGAUCACCCAUGUGGGAUGGGACAAGGAUAUGUAGGUAGAGGAGAAGAGACAGAAGGUGUAGGAG [JR_SS1_Sub052] (puzzle: Same State 1) , system MS2 coat protein?
Found: 0.349

Lookup: Please tell me: apparent KD of MS2 coat protein of GGAUCCGGCACUGAGGAUAUUCAUAUUUAAACAUGAGGAUCACCCAUGUAGGCCAGAAGGCCUUGGGAGAAGGCAGGUCGGCUCG [salish99_ss2_r3_082] (puzzle: Same State 2) , system MS2 coat protein?
Found: 0.0276

Lookup: Please tell me: apparent KD of MS2 coat protein of UGUCCAGCCUGAGCUGGACAAAAGCAUGUACAUGAGGAUCACCCAUGUUCAUGUACAAGCUUUUUGCUCGUCUUAAG [salish99_208a_r3_032] (puzzle: Sensor for hsa-mir-208a) , system MS2 coat protein?
Found: 0.547

Lookup: Please tell me: apparent KD of MS2 coat protein of UAAACUUCUUUUAGUGUAAUGCAAGUGAAACAUGAGGAUCACCCAUGUAAAGGAUCGUGAUAUUUUGUUCGUCUUAA [JR_SHM208A_Sub076] (puzzle: Sensor for hsa-mir-208a) , system MS2 coat protein?
Found: 0.0572

Lookup: Please tell me: apparent KD of MS2 coat protein of GGAGCCGGUACUGAGGAUAUUCGUAUUAAAACAUGAGGAUCACCCAUGUAGGCCAGAAGGCCUUGGGAGAAGGCAGAUCGGCUCC [Biseusra - 1] (puzzle: Same State 2) , system MS2 coat protein?
Found: 0.0132

Lookup: Please tell me: apparent KD of MS2 coat protein of AUAAGUUUGAUGCUCGUCUCUCCGUACAGACAUGAGGAUCACCCAUGUAGCCGGGAAGUAGCCCGACCAGUAUGGCC [Isriinus] (puzzle: Sensor for hsa-mir-208a) , system MS2 coat protein?
Found: 0.0722
